- assay.details: qHTS for Inhibitors of Inflammasome Signaling: IL-1-beta AlphaLISA Primary Screen; further: on the % scale 0 is the no-effect control and ±100 the full control effect
- particulars: THP-1 LPS/ATP IL-1B secretion, 16 h, at 57.5 µM, hits give low values
Out of some 360,000 compounds screened, about 17,000 (4.7%) were called active. Not shown: some 5% with an inconclusive outcome. The list comes from a sample in which actives are over-represented; it also holds close analogues and randomly drawn compounds.
# maps each entry to its activity change
Write the number in % without appending the unit.

Reference set (2 entries):
O=C(c1ccccc1[N+](=O)[O-])N1CCC2(CC1)OCCO2 : -4.53
c1cc2c(c(NC3=NCCCS3)c1)CCCC2 : -2.25

The value of activity change measured for the compound COC(=O)C1=C(c2ccc(OCc3ccccc3)cc2)C[C@@H]2CC[C@H]1N2C(=O)NCc1ccc(Cl)cc1 turned out to be 4.2

# activity change (compound: Nc1ccc(Cc2ccc(N)c(Cl)c2)cc1Cl ) is -24.6

Form field activity change, entry O=c1c2ccccc2nc(CBr)n1-c1ccc(Cl)cc1 : -7.74

For reference, reported activity change for c1cncc(CNC2=NCCC2)c1 stands at 34.2

----------
- assay.details: qHTS for Inhibitors of Inflammasome Signaling: IL-1-beta AlphaLISA Primary Screen
- particulars: THP-1 LPS/ATP IL-1B secretion, 16 h, at 57.5 µM
Screen size: about 360,000 compounds; about 17,000 (4.7%) were called active. Another 5% or so got no clear call; they are omitted. No stated cut-off is given here; in the data, active means activity change below about -50%; inconclusive means mostly about -30% to -49%; inactive means weaker than that. This excerpt belongs to a sample that is enriched for actives.
Allowed answers: class 1 (active), class 0 (inactive)

COc1ccc(-n2nnnc2C(c2cccc3ccccc23)N2CCC(n3c(=O)[nH]c4ccccc43)CC2)cc1 (stereo not given) : class 0
CC12CCC3C(CCC4CC(=O)CCC43C)C1CC(=NO)C2=O (stereo not given) : class 1
C[C@]12CCC3C(CC[C@H]4[C@H](O)[C@H](O)CC[C@]34C)C1CCC2=O (stereo not given in full) : class 0
CCOC(=O)C1SC2(C(F)(F)C(F)F)CC1(O)c1c(c(OC)c3occc3c1OC)O2 (stereo not given) : class 0
COC(=O)C1=C(c2ccccc2)C[C@@H]2CC[C@H]1N2C(=O)N1CCCCC1 : class 0

Call for entry CCC(=O)c1ccc(OCC(=O)N2CCN(CC(=O)Nc3ccc(C)cc3)CC2)cc1 :
class 0

Would you mind telling me which call this test gave O=c1[nH]c2ccccc2n1C1CCN(C(c2ccccc2)c2nnnn2Cc2ccccc2)CC1 (stereo not given) ?
class 1

// return assay outcome for O=C1NCN(c2ccccc2)C12CCN(C(c1cccs1)c1nnnn1C1CCCCC1)CC2 (stereo not given)
class 0

What was the test verdict on C[C@]12CCC3C(CC[C@H]4C[C@@H](O)CC[C@]34C)C1C[C@@H](O)[C@H]2O (stereo not given in full) ?
class 0

Assay result, entry CC(C)CN1Cc2cc(N3CCCCC3)ccc2-n2nncc2C1 — outcome?
class 0

----------
Catalogue of activity change values
- assay.details: qHTS for Inhibitors of Inflammasome Signaling: IL-1-beta AlphaLISA Primary Screen
- particulars: THP-1 LPS/ATP IL-1B secretion, 16 h, at 57.5 µM, hits give low values
About 17,000 (4.7%) of roughly 360,000 compounds were called active. Roughly 5% stayed inconclusive and do not appear here. This excerpt belongs to a sample that is enriched for actives.
Give your result in % as a bare value.

Guide cases for activity change, answers given:
COC(=O)C1=C(c2ccc(OCc3ccccc3)cc2)C[C@@H]2CC[C@H]1N2C(=O)NCc1cccc(F)c1 : -12.8
COc1ccc(-c2nc(CS(=O)CC(=O)N3CCC4(CC3)OCCO4)c(C)o2)cc1 (configuration not stated) : -1.15
ClC(Cl)(Cl)c1ccccc1 : -9.44
COC(=O)[C@@H]1C(OC(=O)c2ccccc2)CC2CCC1N2C (some centres not stated) : -10.2
CC(=O)NCC1=C(c2ccc3ccccc3c2)C[C@@H]2CC[C@H]1N2Cc1ccco1 : -3.75
COc1ccc(CCn2c(O)c(C=NCCCn3ccnc3)c(=O)[nH]c2=O)cc1OC : 43.4
CN1CCN(C(=S)SCC(=O)Nc2ccc(Cl)cc2C(=O)c2ccccc2)CC1 : -88
Clc1cccc(Cl)c1Cl : -12.8

Form field activity change, entry N#CC1=C(N)Oc2c(c(=O)oc3ccccc23)C1c1ccccc1OC(=O)c1cccs1 (configuration not stated) : -86.1

Record O=P(OC1=CCCCC1)(c1ccccc1)c1ccccc1 , field activity change: -4.62

----------
Known activity change of a selection of compounds
- assay.details: qHTS for Inhibitors of Inflammasome Signaling: IL-1-beta AlphaLISA Primary Screen
- particulars: THP-1 LPS/ATP IL-1B secretion, 16 h, at 57.5 µM, hits give low values
Out of some 360,000 compounds screened, about 17,000 (4.7%) were called active. About 5% were inconclusive and are not listed. For the sample, actives were picked, then their nearest neighbours and some compounds at random.
Numbers only here, please. The scale is %.

Cc1cc(C=C2C(=O)NC(=O)NC2=O)c(C)n1-c1ccncc1 : -12.3
c1ccc(N2Cc3ccccc3-n3nncc3C2)nc1 : 12.3
C[C@@]1([C@@H](NP(=O)(c2ccccc2)c2ccccc2)c2ccccc2)C[C@H]1CCO : -4.2

Reported activity change for CC12CCC(O)CC1CCC1C2CCC2(C)C(C(=O)CC(O)C(F)(F)F)CCC12 (stereo unspecified) was 15.6

# compound Cn1cc(C(=O)OCC(=O)N2CCCC2)c2ccccc21 ; its activity change = -12.4

The recorded activity change for Cc1ccc(-n2c(C)cc(/C=C3\C(=O)NC(=O)N(C)C3=O)c2C)cc1C is -4.58

Briefly, activity change measured for C[C@]12CC[C@H](O)C[C@H]1CC[C@@H]1C2CC[C@]2(C)[C@@H](C3=CC(=O)OC3)[C@@H](O)C[C@]12O (stereo partly specified) : -21.6

Consider CC(C)c1ccc(OCC(=O)N2CCN(C)CC2)c(Br)c1 . Its measured activity change is 9.25

Lab note: CCOP(=S)(OCC)SCOC(=O)NCC(=O)OC gave activity change of 0.573

Reported activity change of C[N+]1(C)CCOC(O)(c2ccc(-c3ccc(C4(O)C[N+](C)(C)CCO4)cc3)cc2)C1 (stereo unspecified) : 7.41

get_value(item= CC1([N+](=O)[O-])COP(=O)(Nc2ccc(F)cc2)OC1 (stereo unspecified) , readout=activity change) returns 15.6

----------
Each item that follows carries a reported activity change.
- assay.details: qHTS for Inhibitors of Inflammasome Signaling: IL-1-beta AlphaLISA Primary Screen
- particulars: THP-1 LPS/ATP IL-1B secretion, 16 h, at 57.5 µM, hits give low values
Screen size: about 360,000 compounds; about 17,000 (4.7%) were called active. Another 5% or so got no clear call; they are omitted. What follows is part of a selection rich in actives, with near analogues and random picks from the rest.
Expressed in %, but write only the number.

Worked cases, activity change given:
CC1=CC(=Cc2sc3ccccc3[n+]2C)C=C(C)O1 : -51.7
COC(=O)CN(CCCl)P1(=O)OCCCN1CCCl (stereo unspecified) : 41.8
CC1CC=CCC12C(=O)NC(=S)NC2=O (stereo unspecified) : 5.3

Notebook: Cc1ccc(C(C)C)c(OCC(=O)N2CCN(CC(=O)N3CCOCC3)CC2)c1 , activity change read as -9.54

The reported value for COc1cc(-n2c(=S)[nH]c3ccc(C)cc3c2=O)c(Cl)cc1Cl in terms of activity change is 71.7

Short answer for CC1=C(C(=O)Nc2ccccc2)S(=O)(=O)CCO1 : activity change was -86.7

----------
- assay.details: qHTS for Inhibitors of Inflammasome Signaling: IL-1-beta AlphaLISA Primary Screen
- particulars: THP-1 LPS/ATP IL-1B secretion, 16 h, at 57.5 µM, hits give low values
Hit rate of the full screen: of about 360,000 compounds, about 17,000 (4.7%) were called active. Inconclusive results (about 5%) are left out. Many of the other results were omitted from the sample, so actives are more common in it than they were.
// reported activity change for each item listed
Give your result in % as a bare value.

Example cases with answers are listed next.
CN(C)CC1Oc2ccccc2OC1(O)c1ccccc1 (stereo unspecified) : -101
Cc1cc(-c2ccc(N)c(C)c2)ccc1N : -12.1
Cc1cccc(N2C(=O)NC(=O)/C(=C\c3cnn(-c4ccccc4)c3)C2=O)c1 : -60
O=c1[nH]c(=S)n(C2CC2)c(O)c1/C=N/N1CCOCC1 : 33.5
O=c1c2ccccc2[nH]c(=S)n1-c1cccc(Cl)c1 : 25.2
CC(Cc1ccccc1)NCCC(c1ccccc1)c1ccccc1 (stereo unspecified) : -64.4
CC(=O)NC(=O)NC(C)Cc1ccccc1 (stereo unspecified) : 11.5
COC(=O)C1=C(c2ccc(F)cc2OCc2ccccc2)C[C@@H]2CC[C@H]1N2C(=O)NCc1ccc(Cl)cc1 : -55.3

The reported value for CC(Cc1ccccc1)NC=O (stereo unspecified) in terms of activity change is 16

activity change for COC(=O)C1=C(c2ccc(F)cc2OCc2ccccc2)C[C@@H]2CC[C@H]1N2C(=O)NCc1ccc(OC)c(OC)c1 is -5.32

Record COC(=O)C1=C(c2ccc(F)cc2OCc2ccccc2)C[C@@H]2CC[C@H]1N2C(=O)NCc1ccc(C(C)(C)C)cc1 , field activity change: -29.4

// provenance: PubChem BioAssay AID743279
